Data credit: paper PMC9043233

quantity_name: melting point

Check out these entries, answers already filled in.
> print(dat)
                                   compound  quantity.name    endpoint.result
1  CC1(C)C2CC[C@]3(C)C(CCC4[C@@H]([C@@]5(C)CCC(=O)O5)CC[C@]43C)[C@@]2(C)CC[C@@H]1OC(=O)c1ccccc1O (stereo partly shown)  melting point      186 to 187 °C
2  CC1(C)C2CC[C@]3(C)C(CCC4[C@@H]([C@@]5(C)CCC(=O)O5)CC[C@]43C)[C@@]2(C)CC[C@@H]1O (stereo partly shown)  melting point      195 to 196 °C
3  CC1(C)C(=O)CC[C@@]2(C)C1CC[C@]1(C)C2CCC2[C@@H]([C@@]3(C)CCC(=O)O3)CC[C@]21C (stereo partly shown)  melting point  118.4 to 120.3 °C
4  CC(=O)O[C@H]1CC[C@@]2(C)C(CC[C@]3(C)C2CCC2[C@@H]([C@@]4(C)CCC(=O)O4)CC[C@]23C)C1(C)C (stereo partly shown)  melting point      248 to 249 °C
5  CC1(C)C2CC[C@]3(C)C(CCC4[C@@H]([C@@]5(C)CCC(=O)O5)CC[C@]43C)[C@@]2(C)CC[C@@H]1OC(=O)/C=C/c1ccccc1 (stereo partly shown)  melting point      236 to 238 °C
6  CCCCC(=O)O[C@H]1CC[C@@]2(C)C(CC[C@]3(C)C2CCC2[C@@H]([C@@]4(C)CCC(=O)O4)CC[C@]23C)C1(C)C (stereo partly shown)  melting point      134 to 135 °C

Could you now consider this next compound?
What does the record list as melting point for CC(C)C(=O)O[C@H]1CC[C@@]2(C)C(CC[C@]3(C)C2CCC2[C@@H]([C@@]4(C)CCC(=O)O4)CC[C@]23C)C1(C)C (stereo partly shown) ? 206 to 207 °C
